Assign % Inhibition of HIV-1 protease activity to each entry below.
target: native HIV-1 protease (Human immunodeficiency virus type 1 group M subtype B); construct: The lysis of viral particles and releasing of the active enzyme (protease) was performed using disrupting (lysis) buffer; endogenous in cells; host or cells: Virions from supernatants of chronically infected H9/HTLV IIIB cells, concentrated 50x and lysed with Triton X-100; test: Antiprotease activity using native viral PR, spectrophotometric substrate utilization; format: biochemical; conditions: compound at MNC
Non-standard residues stand in square brackets, D forms with d. Residues, ends and D or L forms follow the SMILES beside them. *: point of attachment. Sta = CC(C)C[C@H](N)[C@@H](O)CC(=O)O; Isovaleryl = CC(C)CC(=O)*
One number for each entry, in %.

* CCOC(=O)C(C(C)=O)C(c1ccc(C(=O)O)cc1)c1c(O)c2ccccc2oc1=O (stereo not shown) | 0
* CC(C)CC(=O)N[C@H](C(=O)N[C@H](C(=O)N[C@@H](CC(C)C)[C@@H](O)CC(=O)N[C@@H](C)C(=O)N[C@@H](CC(C)C)[C@@H](O)CC(=O)O)C(C)C)C(C)C [Pepstatin, pepstatin, reference compound] (Isovaleryl-VV[Sta]A[Sta]-OH) | 100
* CC(=O)C(C(C)=O)C(c1ccc(O)cc1)c1c(O)c2ccccc2oc1=O (stereo not shown) | 0

For every item in the list below, what is its measured % Inhibition of HIV-1 protease activity?
1. CCOC(=O)C(C(C)=O)C(c1ccc(O)c(O)c1)c1c(O)c2ccccc2oc1=O (stereo not shown)
2. CCOC(=O)C(C(C)=O)C(c1cccc([N+](=O)[O-])c1)c1c(O)c2ccccc2oc1=O (stereo not shown)
3. CCOC(=O)C(C(C)=O)C(c1ccc(O)cc1)c1c(O)c2ccccc2oc1=O (stereo not shown)

Output:
[16, 25, 0]

Task: Endpoint output: % Inhibition of HIV-1 protease activity of CCOC(=O)C(C(C)=O)C(c1ccc([N+](=O)[O-])cc1)c1c(O)c2ccccc2oc1=O (stereo not shown) . Value?
Output: 0

* * *

system: HIV-1 III B; assay: Microtiter infection assay, protection of MT-4 cells from HIV cytopathic effect (MTT); format: cell-based; conditions: HIV-1-infected MT-4 cells, compound at MNC, 72–96 hours
Quantity Name: Infection assay MTT- % cell survival
Numeric answer plus unit only.

Use these answered entries as a reference point.
• CCOC(=O)C(C(C)=O)C(c1cccc([N+](=O)[O-])c1)c1c(O)c2ccccc2oc1=O (stereo not shown) [Compound (7)] = 78%
• Nc1nc(NC2CC2)c2ncn([C@H]3C=C[C@@H](CO)C3)c2n1 [Abacavir, reference compound] = 98%
• CCOC(=O)C(C(C)=O)C(c1ccc(O)c(O)c1)c1c(O)c2ccccc2oc1=O (stereo not shown) [(10)] = 30%
• CCOC(=O)C(C(C)=O)C(c1ccc(C(=O)O)cc1)c1c(O)c2ccccc2oc1=O (stereo not shown) [(11)] = 0%

For every item in the list below, what is its measured Infection assay MTT- % cell survival?
1. CC(=O)C(C(C)=O)C(c1ccc(O)cc1)c1c(O)c2ccccc2oc1=O (stereo not shown) [(12)]
2. CCOC(=O)C(C(C)=O)C(c1ccc(O)cc1)c1c(O)c2ccccc2oc1=O (stereo not shown) [(9)]
3. CCOC(=O)C(C(C)=O)C(c1ccc([N+](=O)[O-])cc1)c1c(O)c2ccccc2oc1=O (stereo not shown) [(8)]

Output:
1. 0%
2. 0%
3. 0%
